Read-out: Thrombomodulin, THBD (gene 7056)
Assay: BSK_CASM3C_Thrombomodulin: BioMAP Diversity Plus: CASM3C Assay for Thrombomodulin Biomarker Activity (AID 2283051);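 further: thrombomodulin protein level measured by ELISA 24 h after dosing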
Conditions: primary human coronary artery smooth muscle cells; actives raise or lower the signal
Active and inactive are the calls of the source. How the source made its calls: active means hit-call score of the fitted dose curve at least 0.9, where 1 is the maximum; inactive means score below 0.9.
Form entry, call: pick from active, inactive

[Q] Recorded call for CN/C(=N\[N+](=O)[O-])NCc1cnc(Cl)s1 ?
[A] inactive

* * *

Assay: APR_HepG2_MicrotubuleCSK_24hr: Apredica 24-hour HepG2 Assay for Microtubule CSK Stabilty (AID 2282909)
Conditions: HepG2 microtubule cytoskeleton imaging, actives raise or lower the signal
Active and inactive are the calls of the source. The calls were made as follows: active = hit-call score of the fitted dose curve at least 0.9, where 1 is the maximum; inactive = score below 0.9.
Form entry, call: pick from class 1 for active, class 0 for inactive

Would you please look over these solved cases?
molecule: COC(=O)NC(=S)Nc1ccccc1NC(=S)NC(=O)OC
group: class 1
//
molecule: O=C1C2CC=CCC2C(=O)N1SC(Cl)(Cl)Cl (stereo not given)
group: class 1
//
molecule: CC(C)N1C(=O)N(c2ccccc2)CSC1=NC(C)(C)C
group: class 1
//
molecule: COC(=O)NS(=O)(=O)c1ccc(N)cc1
group: class 0
//
molecule: COP(=S)(OC)SCn1nnc2ccccc2c1=O
group: class 0

[Q] Recorded call for CC(C)NC(=O)N1CC(=O)N(c2cc(Cl)cc(Cl)c2)C1=O ?
[A] class 0

[Q] Recorded call for COCC(=O)N(c1c(C)cccc1C)C(C)C(=O)OC (stereo not given) ?
[A] class 0

[Q] Recorded call for CCNP(=S)(OC)O/C(C)=C/C(=O)OC(C)C (stereo not given) ?
[A] class 0

[Q] Recorded call for Cc1ccc(N=CN(C)C=Nc2ccc(C)cc2C)c(C)c1 ?
[A] class 0

[Q] Recorded call for CCOc1nc(F)cc2nc(S(=O)(=O)Nc3c(Cl)cccc3Cl)nn12 ?
[A] class 0

* * *

Read-out: CD38, CD38 (gene 952)
Test: BSK_SAg_CD38: BioMAP Diversity Plus: SAg Assay for CD38 Biomarker Activity (AID 2283087)
Settings: primary human HUVEC with PBMC; actives raise or lower the signal
Activity calls are given as the source filed them. Rule for the calls: active = hit-call score of the fitted dose curve at least 0.9, where 1 is the maximum; inactive = score below 0.9.
measurement-label: AC50

compound: COC(=O)N(C(=O)N1CO[C@@]2(C(=O)OC)Cc3cc(Cl)ccc3C2=N1)c1ccc(OC(F)(F)F)cc1
measurement-label: AC50
measured-value: 5.95 µM (active)

compound: CC(C)(C)C(=O)C(Oc1ccc(Cl)cc1)n1cncn1 (stereo not drawn)
measurement-label: AC50
measured-value: inactive

compound: CC(C)NC(=O)N1CC(=O)N(c2cc(Cl)cc(Cl)c2)C1=O
measurement-label: AC50
measured-value: inactive

* * *

Read-out: Cytochrome P450 2C19 (Homo sapiens) (UniProt P33261)
Sequence (P33261 whole entry, looked up): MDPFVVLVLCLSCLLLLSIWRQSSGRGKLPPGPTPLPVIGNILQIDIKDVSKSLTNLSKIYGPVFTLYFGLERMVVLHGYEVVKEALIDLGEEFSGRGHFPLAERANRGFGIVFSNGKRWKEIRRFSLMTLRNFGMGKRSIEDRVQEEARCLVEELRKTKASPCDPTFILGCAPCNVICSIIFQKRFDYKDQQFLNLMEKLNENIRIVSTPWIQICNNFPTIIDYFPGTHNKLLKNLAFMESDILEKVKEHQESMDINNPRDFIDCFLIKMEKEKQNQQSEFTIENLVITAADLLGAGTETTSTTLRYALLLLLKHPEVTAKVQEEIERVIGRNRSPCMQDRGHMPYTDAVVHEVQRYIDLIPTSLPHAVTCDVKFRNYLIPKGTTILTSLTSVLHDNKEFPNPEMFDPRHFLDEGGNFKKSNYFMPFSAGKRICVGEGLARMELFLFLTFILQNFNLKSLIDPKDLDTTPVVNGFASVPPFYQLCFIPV
Assay: LTEA_HepaRG_CYP2C19: Life Technologies and Expression Analysis (LTEA) Assay for CYP2C19 using HepaRG (AID 2283482)
Conditions: mRNA level, 48 h; actives raise or lower the signal
Calls of active or inactive are those of the source. Rule for the calls: active = hit-call score of the fitted dose curve at least 0.9, where 1 is the maximum; inactive = score below 0.9.
Form entry, call: pick from active, inactive

Would you please look over these solved cases?
compound: COP(=S)(OC)SCn1nnc2ccccc2c1=O
group: active

compound: COCC(=O)N(c1c(C)cccc1C)C(C)C(=O)OC (configuration not stated)
group: active

compound: CC(C)N1C(=O)N(c2ccccc2)CSC1=NC(C)(C)C
group: active

# next compound below
[Q] Recorded call for CCOc1nc(C(Cl)(Cl)Cl)ns1 ?
[A] active

* * *

Read-out: Urokinase-type plasminogen activator receptor (uPAR), PLAUR (gene 5329)
Test: BSK_BE3C_uPAR: BioMAP Diversity Plus: BE3C Assay for Urokinase-type plasminogen activator receptor (uPAR) Biomarker Activity (AID 2283039)
Details: primary human bronchial epithelial cells; actives raise or lower the signal
Active and inactive are the calls of the source. How the source made its calls: active means hit-call score of the fitted dose curve at least 0.9, where 1 is the maximum; inactive means score below 0.9.
Form entry, call: pick from active, inactive

Would you please look over these solved cases?
compound: O=C(O)c1c(Cl)ccc2cc(Cl)cnc12
group: inactive
--
compound: CO/N=C(/C1=NOCCO1)c1ccccc1Oc1ncnc(Oc2ccccc2Cl)c1F
group: inactive
--
compound: CCOc1cc(C(C)(C)C)ccc1C1COC(c2c(F)cccc2F)=N1 (configuration not stated)
group: active

[Q] Recorded call for Clc1cccc(C(Cl)(Cl)Cl)n1 ?
[A] inactive

[Q] Recorded call for C=C(C)CN(CC)c1c([N+](=O)[O-])cc(C(F)(F)F)cc1[N+](=O)[O-] ?
[A] inactive

* * *

Read-out: Interleukin-1 alpha (IL1a), IL1A (gene 3552)
Assay: BSK_BE3C_IL1a: BioMAP Diversity Plus: BE3C Assay for Interleukin-1 alpha (IL1a) Biomarker Activity (AID 2283016)
Settings: primary human bronchial epithelial cells; actives raise or lower the signal
Description: BSK_BE3C is a cell-based, multiplexed-readout assay that uses bronchial epithelial cell, a human lung primary cell, with measurements taken at 24 hours after chemical dosing in a 96-well plate.BSK_BE3C_IL1a is an assay component measured in the BSK_BE3C assay. It measures IL-1a antibody related to regulation of gene expression using ELISA technology.Data from the assay component BSK_BE3C_IL1a was analyzed into 1 assay endpoint. […]
The source made the active and inactive calls. Rule for the calls: active = hit-call score of the fitted dose curve at least 0.9, where 1 is the maximum; inactive = score below 0.9.
measurement-label: outcome

molecule: COc1ccc(-c2ccccc2)cc1NNC(=O)OC(C)C
outcome: inactive
--
molecule: CC1(C)C(C(=O)OC(C#N)c2cccc(Oc3ccccc3)c2)C1(C)C (stereo unspecified)
outcome: inactive
--
molecule: COP(=S)(OC)Oc1ccc([N+](=O)[O-])c(C)c1
outcome: inactive
--
molecule: C=C(C)CN(CC)c1c([N+](=O)[O-])cc(C(F)(F)F)cc1[N+](=O)[O-]
outcome: inactive
--
molecule: CC(C)Oc1cccc(NC(=O)c2ccccc2C(F)(F)F)c1
outcome: inactive

[Q] What outcome value was documented for this molecule, COc1cc(Cl)c(OC)cc1Cl ?
[A] inactive

[Q] What outcome value was documented for this molecule, Nc1c(Cl)c(F)nc(OCC(=O)O)c1Cl ?
[A] inactive

[Q] What outcome value was documented for this molecule, Cc1cnc(C2=NC(C)(C(C)C)C(=O)N2)c(C(=O)O)c1 (stereo unspecified) ?
[A] inactive

[Q] What outcome value was documented for this molecule, CS(=O)(=O)c1cc(C(F)(F)F)ccc1C(=O)c1cnoc1C1CC1 ?
[A] inactive

[Q] What outcome value was documented for this molecule, Cc1cc(C)nc(Nc2ccccc2)n1 ?
[A] inactive

[Q] What outcome value was documented for this molecule, Cc1c(COC(=O)[C@@H]2[C@H](/C=C(\Cl)C(F)(F)F)C2(C)C)cccc1-c1ccccc1 ?
[A] inactive

* * *

Assay: CCTE_Shafer_MEA_dev_correlation_coefficient_mean: CCTE's Neural Network Formation Assay for Mean Correlation Coefficient, Shafer Lab (AID 2284093)
Method: CCTE_Shafer_MEA_dev assay is conducted using Axion Biosystems 48 well microelectrode array (MEA) plates and Maestro recording system. Each well of the MEA plate contains a grid of 16 microelectrodes embedded in the culture surface. Electrically active cells, such as neurons, can be cultured over the electrodes, and electrical activity in these cells can be recorded extracellularly. […]
Activity calls are given as the source filed them. The calls were made as follows: active = hit-call score of the fitted dose curve at least 0.9, where 1 is the maximum; inactive = score below 0.9.
Form entry, call: pick from active, inactive

Would you please look over these solved cases?
smiles-notation: COP(=O)(OC)O/C(C)=C/C(=O)N(C)C
group: inactive
//
smiles-notation: CS(=O)(=O)c1cc(C(F)(F)F)ccc1C(=O)c1cnoc1C1CC1
group: inactive
//
smiles-notation: CS(=O)(=O)c1ccc(C(=O)C2C(=O)CCCC2=O)c([N+](=O)[O-])c1
group: inactive

# next molecule below
[Q] Recorded call for COC(=O)N(C(=O)N1CO[C@@]2(C(=O)OC)Cc3cc(Cl)ccc3C2=N1)c1ccc(OC(F)(F)F)cc1 ?
[A] active

* * *

Biological target: rat CYP2C13, Cyp2c13 (gene 171521)
Assay: NVS_ADME_rCYP2C13: NovaScreen (NVS) CYP450-related Enzyme Activity (ADME) Assay for rat CYP2C13 (AID 2283121)
Records with an inconclusive call do not appear. Activity calls are given as the source filed them. Rule for the calls: active = hit-call score of the fitted dose curve at least 0.9, where 1 is the maximum; inconclusive = response in the unintended direction; inactive = score below 0.9.
Recorded AC50, one value per entry.

# count of solved cases: 5
compound: COP(=S)(OC)SCn1nnc2ccccc2c1=O
AC50: 3.03 µM (active)
--
compound: CCCCOCN(C(=O)CCl)c1c(CC)cccc1CC
AC50: 10 µM (active)
--
compound: COc1ccc(-c2ccccc2)cc1NNC(=O)OC(C)C
AC50: 1.17 µM (active)
--
compound: CCCCC(C#N)(Cn1cncn1)c1ccc(Cl)cc1 (stereo unspecified)
AC50: 4.37 µM (active)
--
compound: COP(=S)(OC)Oc1ccc([N+](=O)[O-])c(C)c1
AC50: 10 µM (active)

[Q] What AC50 value was documented for this compound, CCNP(=S)(OC)O/C(C)=C/C(=O)OC(C)C (stereo unspecified) ?
[A] 7.31 µM (active)

* * *

Assay: CEETOX_H295R_PROG: CeeTox H295R High-throughput Steroidogenesis Assay for Progesterone (PROG) (AID 2283442)
Details: actives raise or lower the signal
Experimental: CEETOX_H295R is a cell-based, multiplexed-readout assay that uses H295R, a human adrenal gland cell line, with measurements taken at 48 hours after chemical dosing in a 96-well plate.CEETOX_H295R_PROG is one of 23 assay component(s) measured or calculated from the CEETOX_H295R assay. […] This assay endpoint, CEETOX_H295R_PROG, was analyzed with bidirectional fitting relative to DMSO as the negative control and baseline of activity. […]
The source made the active and inactive calls. Rule for the calls: active = hit-call score of the fitted dose curve at least 0.9, where 1 is the maximum; inactive = score below 0.9.
Form entry, call: pick from active, inactive

compound: CCSC(=O)N1CCCCCC1
group: inactive

compound: Cc1nc(N(C)C)nc(OC(=O)N(C)C)c1C
group: inactive

compound: CC(C)Oc1cccc(NC(=O)c2ccccc2C(F)(F)F)c1
group: active

compound: COCC(=O)N(c1c(C)cccc1C)C(C)C(=O)OC (configuration not stated)
group: inactive

compound: COC(=O)NC(=S)Nc1ccccc1NC(=S)NC(=O)OC
group: inactive

compound: Cc1c(COC(=O)[C@@H]2[C@H](/C=C(\Cl)C(F)(F)F)C2(C)C)cccc1-c1ccccc1
group: inactive

compound: CC(C)NC(=O)N1CC(=O)N(c2cc(Cl)cc(Cl)c2)C1=O
group: active

compound: CC1(C)C(C=C(Cl)Cl)C1C(=O)OC(C#N)c1cccc(Oc2ccccc2)c1 (configuration not stated)
group: inactive

compound: CNC(=O)Oc1cccc2ccccc12
group: inactive

compound: CCN(CC)C(=O)C(C)Oc1cccc2ccccc12 (configuration not stated)
group: inactive

[Q] Recorded call for O=C1C2CC=CCC2C(=O)N1SC(Cl)(Cl)Cl (configuration not stated) ?
[A] inactive

[Q] Recorded call for Nc1cnn(-c2ccccc2)c(=O)c1Cl ?
[A] inactive
